Values were extracted from patent US20120244164A1.

Target: T1, recombinant human c-Met/Fc chimera (R&D systems) (human)
T1 construct: R&D Systems 358-MT/CF, expressed in NS0 cells; also called hc-Met/Fc; hu c-Met/Fc
T1 sequence (chain, as listed by the source mutant limits assumed): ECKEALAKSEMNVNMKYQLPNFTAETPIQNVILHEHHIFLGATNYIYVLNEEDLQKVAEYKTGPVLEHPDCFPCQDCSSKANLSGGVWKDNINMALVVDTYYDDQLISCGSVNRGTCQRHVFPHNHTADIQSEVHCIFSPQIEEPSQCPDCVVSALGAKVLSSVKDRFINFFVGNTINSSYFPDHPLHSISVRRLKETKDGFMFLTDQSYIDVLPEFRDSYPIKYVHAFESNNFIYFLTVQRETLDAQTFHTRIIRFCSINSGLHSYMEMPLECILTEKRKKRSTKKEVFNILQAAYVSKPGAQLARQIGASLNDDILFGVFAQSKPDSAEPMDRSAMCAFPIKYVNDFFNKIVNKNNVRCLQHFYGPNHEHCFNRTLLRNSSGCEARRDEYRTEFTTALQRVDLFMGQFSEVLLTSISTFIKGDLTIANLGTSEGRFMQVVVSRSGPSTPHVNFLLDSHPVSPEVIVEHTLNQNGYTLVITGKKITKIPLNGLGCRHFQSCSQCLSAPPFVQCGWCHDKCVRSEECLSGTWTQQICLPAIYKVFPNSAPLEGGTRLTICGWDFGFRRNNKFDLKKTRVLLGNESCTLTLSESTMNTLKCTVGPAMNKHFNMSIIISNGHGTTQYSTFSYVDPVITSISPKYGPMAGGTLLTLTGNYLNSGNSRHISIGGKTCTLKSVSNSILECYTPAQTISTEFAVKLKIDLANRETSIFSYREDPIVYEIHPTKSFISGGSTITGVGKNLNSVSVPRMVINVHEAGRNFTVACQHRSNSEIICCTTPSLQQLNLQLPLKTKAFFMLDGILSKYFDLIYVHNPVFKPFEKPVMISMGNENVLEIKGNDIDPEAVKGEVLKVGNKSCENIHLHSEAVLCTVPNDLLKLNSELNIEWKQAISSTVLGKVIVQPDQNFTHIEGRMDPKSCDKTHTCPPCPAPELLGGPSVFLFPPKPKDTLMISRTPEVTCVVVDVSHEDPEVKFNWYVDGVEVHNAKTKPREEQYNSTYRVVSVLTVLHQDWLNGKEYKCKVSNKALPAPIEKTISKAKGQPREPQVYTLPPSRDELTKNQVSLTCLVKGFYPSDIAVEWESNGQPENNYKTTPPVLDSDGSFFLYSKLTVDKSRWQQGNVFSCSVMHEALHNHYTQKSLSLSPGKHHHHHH
Assay: HGF-competition Alphascreen
Measurement kind: IC50 (nM)
Supply the numeric figure in nM, leaving out any unit text.

Consider the binder A007900740 (VHH, 33H10 variant; the entry holds the 3xFLAG-His6 tag) VHH: EVQLVESGGGLVQPGGSLRLSCAASGFTFDDYAIGWFRQAPGEEREGVSSISSTYGLTYYADSVKGRFTISSDNSKNTVYLQMNNLKPEDTAVYYCAATPIERLGLDAYEYDYWGQGTLVTVSS and give its recorded IC50.
1.1

Consider the binder A007900749 (VHH, 33H10 variant; the entry holds the 3xFLAG-His6 tag) VHH: EVQLVESGGGLVQPGGSLRLSCAASGFTFDDYAIGWFRQAPGKEREGVSSISSTYGLTYYADSVKGRFTISSDNSKNTVYLQMNSLKPEDTAVYYCAATPIERLGLDAYEYDYWGQGTLVTVSS and give its recorded IC50.
3.4

Consider the binder A007900746 (VHH, 33H10 variant; the entry holds the 3xFLAG-His6 tag) VHH: EVQLVESGGGLVQPGGSLRLSCAASGFTFDDYAIGWFRQAPGKEREGVSSISSTYGLTYYADSVKGRFTISSSNSKNTVYLQMNNLKPEDTAVYYCAATPIERLGLDAYEYDYWGQGTLVTVSS and give its recorded IC50.
2.5

Consider the binder A007900751 (VHH, 33H10 variant; the entry holds the 3xFLAG-His6 tag) VHH: EVQLVESGGGLVQPGGSLRLSCAASGFTFDDYAIGWFRQAPGKEREGVSSISSTYGLTYYADSVKGRFTISRDNSKNTVYLQMNNLKPEDTAVYYCAATPIERLGLDAYEYDYWGQGTLVTVSS and give its recorded IC50.
100
